experimentalTarget: erythrocytes infected with P. falciparum field isolate 9215
procedureSummary: flow cytometry, staining of IEs

- binder: "MGC37 (antibody) VH: EVQLVESGGDLVQPGGSLRLSCAASGFTFRNYWMSWVRQTPGKGLEWVANIRQDGSEKYYVDSVKGRFTISRDNAKNLLYLQMNSLRAEDTAVYYCVRDKFCSDENHMHVADDLPRPSISPEPGTVIPLGSHVTFVCRGPVGVQTFRLEKDRRSTYNDTEDVSQPSPSESEARFRIDSVTEGNAGLYRCVYYKPPKWSDQSDFLELLVKGEDVTWALFPHCGADGEDSDYYMDVWGKGTTVTVSS VL: DIQLTQSPSTLSASVGDRVTISCRASQRLSRSLAWYQQRPRKAPNLLIYKASPLEIGGPSRFTGSGSGTEFTLTISSLQPDDSATYYCQQYSNYSYSFGQGTKLEIR"
  unitDescriptor: "%"
  % parasite recognition: 9.9
